Data origin, for the record: a melting point compilation (Tetko et al.; mined from patent text by program, amines drawn as free bases though some values may be those of a salt)

quantity.kind: melting point

Worked examples follow.
In [3]: df
Out[3]:
                                   compound  quantity_kind         result
0    CC(C)(C)NC(=O)Nc1ccc([N+](=O)[O-])cc1O  melting point   99 to 101 °C
1  O=C1CCc2cc(C(=O)[C@H]3C[C@H]3C(=O)O)ccc2N1 (relative stereo)  melting point  190 to 194 °C
2  CCCCCCc1c(C(C)C)nc(C(C)C)c(C(C)O)c1-c1ccc(F)cc1 (stereo not given)  melting point    75 to 77 °C
3           O=C(c1cccc(Cl)n1)c1ccc(Cl)cc1Cl  melting point  103 to 104 °C

State its melting point for this compound: CN(C(=O)OC(C)(C)C)C1CCN(CC2(C)Cn3cc([N+](=O)[O-])nc3O2)CC1 (stereo not given) 199 to 201 °C

###

quantity.kind: melting point

State its melting point for this compound: N#Cc1cc2c(cc1O)OCC21C(=O)N(CC2CCCO2)c2ccccc21 (stereo unspecified) 218 to 221 °C

State its melting point for this compound: CC(C)c1ccc2nc3c(C(=O)O)cccn3c(=O)c2c1 206 to 210 °C

State its melting point for this compound: CCOC(=O)c1ccc(OCCCCl)cc1 24 to 25 °C

###

Listed here: items and their measured melting point.

State its melting point for this molecule: COc1ccc(COc2cccc(C(=O)Nc3ccc(C#N)cc3)c2)cc1 147 to 148 °C

State its melting point for this molecule: COC(=O)C1=C(C)NC(CCn2ccnc2)=C(C(=O)OC)C1c1cccc(Cl)c1Cl (stereo unspecified) 180 to 182 °C

State its melting point for this molecule: CC1c2ccccc2N(CCN2CC=C(c3c[nH]c4cc(F)ccc34)CC2)S(=O)(=O)N1C (stereo unspecified) 105 to 108 °C

###

Listed here: items and their measured melting point.

Worked examples follow.
In [3]: df
Out[3]:
                                   compound         result
0  CCOC(=O)c1ccc(Oc2cccc3[nH]c4cnc(C(=O)OC(C)C)c(COC)c4c23)o1  191 to 192 °C
1                     OCc1ccc(C2=CCCCC2)cc1    70 to 71 °C
2  Cc1c(/C=C/C(=O)c2cccc3ccccc23)ncn1C(c1ccccc1)(c1ccccc1)c1ccccc1  184 to 186 °C

State its melting point for this compound: Sc1c(Br)cc(Br)c(Br)c1S 125 to 127 °C

State its melting point for this compound: CS(=O)c1ccc(-n2cnc3ccc(-c4nnc(N)o4)cc32)cc1 (configuration not stated) 290 to 291 °C

State its melting point for this compound: COc1cc2c(c(OC)c1OC)CN(CCc1ccc([N+](=O)[O-])cc1)CC2 110 °C

State its melting point for this compound: Nc1cc([N+](=O)[O-])c(N)cc1Cl 157 °C

State its melting point for this compound: CCN(CC)CCn1nc2c3c(c(N)ccc31)Oc1ccccc1-2 78 to 80 °C

###

Listed here: items and their measured melting point.

>>> df
                               compound         result
0  C=Cc1ccc([Si](C)(C)C)c(C(=O)NCC)c1Cl  127 to 128 °C

State its melting point for this compound: CCOP(=O)(OCC)OC(=Cc1nccn1C)c1ccccc1 111 to 114 °C

State its melting point for this compound: O=[N+]([O-])c1ccc2oc(Cc3ccccc3)cc2c1 100 °C

State its melting point for this compound: COc1ccc(-c2nccn2N=Cc2ccc(N(C)C)cc2)cc1 108 °C
